Target: Sulfhydryl oxidase 1 (Homo sapiens)
Test: QSOX1 enzyme inhibitors, primary screen, biochemical, HyperBlu H2O2 luminescence, HTS (AID 1347420); note: values above 100% were filed as inconclusive
Settings: recombinant QSOX1, HyperBlu H2O2 luminescence, at 12.5 µM, stronger effect = higher value; active = any value above zero unless noted
The whole screen tested about 1,300 compounds, of which about 980 (75%) were called active. About 4% were inconclusive and are not listed. Some of the results follow.
Lab note: assign the record to one of yes (1) = active, no (0) = inactive

# fetch the recorded call for CN(N=O)c1ccc(O)c(O)c1 here
yes (1)

Please answer likewise for O=[N+]([O-])c1ccc2nc(N3CCNCC3)ccc2c1
yes (1)

Now consider NNC(N)=O .
yes (1)

Same again, this time with NC1CCc2cc(O)c(O)cc2C1 (stereo not drawn)
yes (1)

Request: CCCn1c(=O)c2[nH]c(C3CCCC3)nc2n(CCCOC(=O)c2ccc(S(=O)(=O)F)cc2)c1=O
yes (1)

How about this compound: CN1C(=O)CCS(=O)(=O)C1c1ccc(Cl)cc1 (stereo not drawn)
yes (1)

Same thing, different compound: N[C@@]1(C(=O)O)CC[C@@H](C(=O)O)C1
yes (1)

Same for O=C(O)CC[N+](=O)[O-]
yes (1)

Request: COc1cc(CC(C)N)c(OC)cc1I (stereo not drawn)
yes (1)

Next: NC(=O)CI
no (0)

Lookup CCCN(CCC)[C@@H]1CCc2ccc(O)cc2C1
yes (1)

Can you check C=CCN1C[C@@H](C)N([C@H](c2ccc(C(=O)N(CC)CC)cc2)c2cccc(OC)c2)C[C@@H]1C next?
yes (1)

Okay, and CCCN(CCC)C1CCc2ccc(O)cc2C1 (stereo not drawn) ?
yes (1)

----------
Molecular target: Sulfhydryl oxidase 1 (Homo sapiens)
Test: QSOX1 enzyme inhibitors, primary screen, biochemical, HyperBlu H2O2 luminescence, HTS (AID 1347420); note: values above 100% were filed as inconclusive
Conditions: recombinant QSOX1, HyperBlu H2O2 luminescence, at 12.5 µM, stronger effect = higher value; active = any value above zero unless noted
Out of some 1,300 compounds screened, about 980 (75%) were called active. Inconclusive results (about 4%) are left out. The list shows a part of the results.
result.type: inhibition

What value of measured inhibition is listed for COc1ccc(OC)c(C(O)C(C)N)c1 (stereo not drawn) ?
10.6% [setting not given] (active)

What would you report for CC(N)Cc1c[nH]c2ccc(OCc3cccs3)cc12 (stereo not drawn) ?
-4.1% [setting not given] (inactive)

And then Cc1sc2ccccc2c1CC1=NCCN1 , what is it?
9.6% (active)

Follow-up item: C[C@]12Cc3cn4c(nc3C=C1CCC1C2CC[C@@]2(C)[C@H]1CC[C@@]2(O)C#N)nc1ccccc14 (stereo partly drawn)
-42.5% (inactive)

Again, but for CCCN1CCC[C@@H](c2cccc(O)c2)C1
25.8% (active)

Then CC(N)Cc1c[nH]c2ccc(O)cc12 (stereo not drawn) ?
79% [setting not given] (active)

What about COc1ccc2[nH]cc(CCN)c2c1 ?
-0.1% [setting not given] (inactive)

Now give it for Cc1ncsc1CCCl too.
12.9% (active)

Same for N=C(N)c1ccc(CS(=O)(=O)F)cc1
7.2% (active)

Next: CN1C2CCC1CC(OC(=O)c1cc(Cl)cc(Cl)c1)C2 (stereo not drawn)
5.4% (active)

Also check CC(N)[C@H](O)c1ccc(O)c(O)c1 (stereo partly drawn)
57.3% [setting not given] (active)

Repeat for the following molecule: C/C=C(/C)C(=O)O[C@H]1C(C)=C2[C@H]([C@@H]1OC(=O)CCCCCCC)[C@@](C)(OC(C)=O)C[C@H](OC(=O)CCC)[C@@]1(O)[C@H]2OC(=O)[C@@]1(C)O
-2.4% (inactive)

Nc1ccc(CCN2CCN(c3cccc(C(F)(F)F)c3)CC2)cc1 ?
27.1% (active)
